Tested on: P12-Ichikawa
Experiment: AUC of viability dose-response curve (% viability x log10 dose units); higher = less sensitive
Conditions: RPMI 5 mM glucose + 10% dialyzed FBS; 48 h
Measurement kind: AUC of viability dose-response curve
API note: the answer field is a bare number with no unit suffix.

-- ask Can you share its AUC of viability dose-response curve? I mean this compound: CCC(C)(C)c1ccc(CC(C)CN2C[C@@H](C)O[C@@H](C)C2)cc1 (stereo not given in full)
-- reply 380

-- ask Can you share its AUC of viability dose-response curve? I mean this compound: N[C@H](CSC(c1ccccc1)(c1ccccc1)c1ccccc1)C(=O)O
-- reply 470

-- ask Can you share its AUC of viability dose-response curve? I mean this compound: COc1cc2ncnc(Nc3ccc(F)c(Cl)c3)c2cc1NC(=O)/C=C/CN1CCCCC1
-- reply 436

-- ask Can you share its AUC of viability dose-response curve? I mean this compound: O=C1c2c(O)ccc(O)c2C(=O)c2c(NCCNCCO)ccc(NCCNCCO)c21
-- reply 296

-- ask Can you share its AUC of viability dose-response curve? I mean this compound: CC(C)CC(=O)N[C@H](C(=O)N[C@H](C(=O)N[C@@H](CC(C)C)[C@@H](O)CC(=O)N[C@@H](C)C(=O)N[C@@H](CC(C)C)[C@@H](O)CC(=O)O)C(C)C)C(C)C
-- reply 477

---

Exercise: for every item that follows, state its recorded cell viability.
System: NOMO1
Assay: cell viability relative to DMSO control; higher = less cytotoxic
Settings: HPLM + 10% dialyzed FBS; 48 h; 5.12 µM
Write the value in % as a bare number.

-- ask Can you share its cell viability? I mean this molecule: C=C[C@H]1CN2CC[C@H]1C[C@H]2[C@H](O)c1ccnc2ccc(OC)cc12
-- reply 112

-- ask Can you share its cell viability? I mean this molecule: C[C@@]12C[C@@]3(O)O[C@@H](O1)[C@]1(COC(=O)c4ccccc4)[C@H]3C[C@@]12O[C@@H]1O[C@H](CO)[C@@H](O)[C@H](O)[C@H]1O
-- reply 100

-- ask Can you share its cell viability? I mean this molecule: CCC(C)(C)c1ccc(CC(C)CN2C[C@@H](C)O[C@@H](C)C2)cc1 (some centres undefined)
-- reply 93.6

-- ask Can you share its cell viability? I mean this molecule: CNC1CCC(N(Cc2cccc(-c3ccncc3)c2)C(=O)c2sc3c(F)ccc(F)c3c2Cl)CC1 (centres undefined)
-- reply 100

-- ask Can you share its cell viability? I mean this molecule: S=P(N1CC1)(N1CC1)N1CC1
-- reply 92.4

-- ask Can you share its cell viability? I mean this molecule: COc1ccc(-c2ccc3c(N4CCOC[C@@H]4C)nc(N4CCOC[C@@H]4C)nc3n2)cc1CO
-- reply 48

-- ask Can you share its cell viability? I mean this molecule: OC1=CC2=C(C(=C1)O)C(=O)\C=C(/O2)C3=CC=CC=C3
-- reply 121

-- ask Can you share its cell viability? I mean this molecule: CC(N)C12CC3CC(CC(C3)C1)C2 (centres undefined)
-- reply 104

-- ask Can you share its cell viability? I mean this molecule: FC1=CC=C(SC/2=N/N3\C=N/C(=O)/C(=C3/C=C2)C4=C(Cl)C=CC=C4Cl)C(=C1)F
-- reply 101

---

Tested on: SEM cells
Assay: cell viability relative to DMSO control; higher = less cytotoxic
Settings: RPMI 5 mM glucose + 10% FBS; 48 h; 15.4 µM
Exercise: for every item that follows, state its recorded cell viability.
Don't forget the unit after the value.

-- ask Can you share its cell viability? I mean this molecule: C/C=C1\C2C=C(C)CC1(N)c1ccc(=O)[nH]c1C2 (stereo not given)
-- reply 88%

-- ask Can you share its cell viability? I mean this molecule: C[C@]12CC[C@@H]3c4ccc(O)cc4C[C@@H](CCCCCCCCC[S+]([O-])CCCC(F)(F)C(F)(F)F)[C@H]3[C@@H]1CC[C@@H]2O (stereo not given in full)
-- reply 83.7%

-- ask Can you share its cell viability? I mean this molecule: COc1ccc(C(C)=O)c(O)c1
-- reply 118%

-- ask Can you share its cell viability? I mean this molecule: Cc1cnc(-c2cc(N3CCN(C(=O)CC[S+](C)(=O)[O-])CC3)ncc2Cl)c(C)c1
-- reply 142%

-- ask Can you share its cell viability? I mean this molecule: CN1C[C@H]2c3ccccc3Oc3ccc(Cl)cc3[C@@H]2C1
-- reply 79.3%

Data credit: the supplement of paper PMC11451515
